biological target: RAD52-mediated ssDNA annealing (Homo sapiens, UniProt P43351); construct: made in house; experiment: FRET-based RAD52-mediated ssDNA annealing assay; type: biochemical
Sequence (P43351 whole entry): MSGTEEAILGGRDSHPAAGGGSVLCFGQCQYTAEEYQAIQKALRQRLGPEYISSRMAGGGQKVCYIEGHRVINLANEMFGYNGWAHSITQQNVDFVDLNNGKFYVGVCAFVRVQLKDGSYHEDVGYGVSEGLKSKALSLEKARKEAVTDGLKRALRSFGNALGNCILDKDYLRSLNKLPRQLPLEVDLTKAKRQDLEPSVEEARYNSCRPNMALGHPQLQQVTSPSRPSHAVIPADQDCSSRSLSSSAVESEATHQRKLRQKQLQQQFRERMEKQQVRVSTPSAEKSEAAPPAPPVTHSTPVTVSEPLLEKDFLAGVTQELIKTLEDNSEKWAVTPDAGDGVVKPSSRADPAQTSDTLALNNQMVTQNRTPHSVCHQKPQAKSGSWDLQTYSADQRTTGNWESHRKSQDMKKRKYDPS
value.kind: IC50 (µM)
Answer with a number only, understood to be in µM.

Documented IC50 of O=c1c(O)c(-c2ccc(O)c(O)c2)oc2c(O)c(O)cc(O)c12 [Compound 19, Gossypetin] : 6

* * *

Target: RAD52-ssDNA interaction (Homo sapiens)
Construct: made in house
Sequence (P43351 whole entry): as above
Experiment: FRET-based ssDNA binding and wrapping assay (RAD52-Cy3-dT30-Cy5 complex)
Settings: 1 nM Cy3-dT30-Cy5, 8 nM RAD52, 25°C; read-out: IC50 (DNA binding), ssDNA
Experimental: We titrated increasing amounts of each compound into a cuvette containing preformed stoichiometric RAD52-Cy3-dT30-Cy5 complexes (1 nM Cy3-dT30-Cy5 and 8 nM RAD52). […] At each concentration of the compound, the FRET signal was adjusted for the change in Cy3 and Cy5 fluorescence in the presence of the compound, but in the absence of protein. […]
Counter-ions that a name gives are not always drawn.
Quick reference for pIC50 among some compounds
// field semantics: pIC50 = negative decimal log of concentration (mol/L)

// known answers, use as guide
compound: C=C1c2cccc(O)c2C(=O)C2=C(O)[C@]3(O)C(=O)C(C(N)=O)=C(O)[C@@H](N(C)C)[C@@H]3[C@@H](O)[C@H]12 [Compound 3, Methacycline Hydrochloride]
assay.system: RAD52-ssDNA interaction (Homo sapiens)
pIC50: 5.70

compound: O=C(O[C@@H]1Cc2c(O)cc(O)cc2O[C@@H]1c1ccc(O)c(O)c1)c1cc(O)c(O)c(O)c1 [Compound 5, (−)−Epicatechin gallate]
assay.system: RAD52-ssDNA interaction (Homo sapiens)
pIC50: 6.59

compound: O=C1c2ccc(O)c(O)c2C(=O)c2c(O)ccc(O)c21
assay.system: RAD52-ssDNA interaction (Homo sapiens)
pIC50: 6.25

compound: O=C(O[C@@H]1O[C@@H]2COC(=O)c3cc(O)c(O)c(O)c3-c3c(cc(O)c(O)c3O)C(=O)O[C@H]([C@H]1O)[C@@H]2O)c1cc(O)c(O)c(O)c1
assay.system: RAD52-ssDNA interaction (Homo sapiens)
pIC50: 5.82

Documented pIC50 of Oc1cc(O)c2c(c1)O[C@H](c1ccc(O)c(O)c1)[C@H](O)C2 [Compound 7, (−)−Epicatechin] : 5.84
